Every entry's value here was drawn from patent US5366982A.

Test system: guinea-pig pulmonary parenchyma
Test: L. Parenchyma: guinea-pig pulmonary parenchyma contraction antagonism induced by LTB4 (Sirois)
Assay type: cell-based
Settings: Cavia porcellus; Table XIX; guinea-pig pulmonary parenchyma contraction induced by LTB4; read-out: IC50 L. Parenchyma
metricName: pIC50
Conceptually, pIC50 converts a concentration in mol/L into minus its log10.

The measured pIC50 associated with `CC(C)(CCCCOc1cc(-c2ccccc2)ccn1)C(=O)O` reads 5.52

According to the records, this compound `COc1cccc(-c2cc(OCCCCC(C)(C)C(=O)O)nc(-c3ccccc3)c2)c1` displays pIC50 of 7.52

----------
Target: leukotriene B4 receptors (Cavia porcellus, UniProt H0VYV8)
Sequence (H0VYV8 1-348): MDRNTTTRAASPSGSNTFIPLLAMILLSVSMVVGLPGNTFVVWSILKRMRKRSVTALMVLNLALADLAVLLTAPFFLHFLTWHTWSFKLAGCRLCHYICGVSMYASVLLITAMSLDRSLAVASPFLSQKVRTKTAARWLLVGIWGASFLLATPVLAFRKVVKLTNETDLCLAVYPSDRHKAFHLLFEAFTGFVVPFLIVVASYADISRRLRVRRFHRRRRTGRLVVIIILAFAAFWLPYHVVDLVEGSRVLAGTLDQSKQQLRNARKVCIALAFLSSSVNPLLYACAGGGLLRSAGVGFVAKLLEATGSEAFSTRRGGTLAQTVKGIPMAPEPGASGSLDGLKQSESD
Experiment: biochemical
Assay type: binding, guinea-pig
Conditions: read-out: Binding (Cheng) % Inhibition at 10 μM
metricName: inhibition at 10 µM
Form field: result (number plus unit)

Observe how each entry below is paired with its result.
{"compound": "O=C(O)CCCCCOc1cc(-c2ccc(C(=O)O)cc2)cc(-c2ccccc2)n1", "inhibition at 10 µM": "32%"}
{"compound": "O=C(O)CCCCCOc1ccc(-c2ccccc2)c(-c2ccccc2)n1", "inhibition at 10 µM": "15%"}
{"compound": "COc1ccc(-c2ccc(OCCCCCC(=O)O)nc2-c2ccc(OC)cc2)cc1", "inhibition at 10 µM": "37%"}
{"compound": "COc1cc(OC)cc(-c2cc(OCCCCCC(=O)O)nc(-c3ccccc3)c2)c1", "inhibition at 10 µM": "50%"}
{"compound": "COc1ccc2nc(OCCCCCC(=O)O)cc(-c3ccccc3)c2c1", "inhibition at 10 µM": "30%"}

Consider the record given below.
// recorded inhibition at 10 µM for `CC(C)(CCCCSc1cc(-c2ccccc2)c2ccccc2n1)C(=O)O` : 33%

----------
The following are reported IC50 results, target or system leukotriene B4 receptors (Cavia porcellus).

Record excerpt, results attached:
{"molecule": "O=C(O)CCCCCOc1nc(-c2ccccc2)cc(-c2ccccc2)n1", "IC50": "0.15 µM"}
{"molecule": "CC(C)(CCCCOc1cc(-c2ccccc2)cc(C(C)(C)C)n1)C(=O)O", "IC50": "0.04 µM"}
{"molecule": "O=C(O)CCCCCOc1cc(-c2ccc(F)cc2)cc(-c2ccccc2F)n1", "IC50": "0.01 µM"}

GET /value?item= `CCOC(=O)CCCCCOc1cc(-c2ccccc2)cc(-c2ccc(Cl)cc2)n1` &field=IC50 returns 5 µM

// recorded IC50 for `O=C(O)CCCCCOc1cc(-c2ccc(Cl)cc2)cc(-c2ccc(Cl)cc2)n1` : 1.2 µM

IC50 for `Cc1ccc(-c2cc(-c3ccccc3)cc(OCCCCCC(=O)O)n2)cc1` is 0.3 µM

IC50 for `O=C(O)CCCCCOc1cc(-c2ccc(NC(=O)c3ccccc3)cc2)cc(-c2ccccc2)n1` is 4 µM

Just so you know, measured IC50 for `CC(C)(CCCCOc1cc(-c2ccccc2)c2ccccc2n1)C(=O)O` came out at 0.15 µM

# IC50 of CCC(C)(CCCCOc1cc(-c2ccccc2)c2ccccc2n1)C(=O)O (stereo not drawn) = 0.11 µM

The reported IC50 of the molecule `CC(C)(CCCCOc1cc(-c2cccc(Cl)c2)cc(-c2ccccc2)n1)C(=O)O` was 0.013 µM

----------
Molecular target: leukotriene B4 receptors (Cavia porcellus, UniProt H0VYV8)
Flag rule - IC50 less than 400 nM flags criterion met; the remaining entries get criterion not met.

The following compounds have reported results that may help.
{"compound": "CC(CCCCOc1cc(-c2ccccc2)cc(-c2ccccc2F)n1)C(=O)O (centres unmarked)", "qualitativeLabel": "criterion met"}
{"compound": "COc1ccc(-c2cc(-c3ccc(Cl)cc3)cc(OCCCCCC(=O)O)n2)cc1", "qualitativeLabel": "criterion not met"}
{"compound": "Clc1ccc(-c2cc(OCCCCCc3nnn[nH]3)nc3ccccc23)cc1", "qualitativeLabel": "criterion met"}
{"compound": "CSc1ccc(-c2cc(OCCCCCC(=O)O)nc(-c3ccccc3)c2)cc1", "qualitativeLabel": "criterion met"}

Now, please, on to the next compound.
# check: IC50 < 400 nM for `O=C(O)CCCCCSc1ncc(-c2ccccc2)c(-c2ccccc2)n1`
criterion not met
